Test system: 5-helix bundle (5HB) protein mimicking hRSV fusion protein F
Assay: 5HB-based competitive fluorescence polarization (FP) binding assay
Set-up: species or system human respiratory syncytial virus (hRSV)
Conditions: 200 µM peptide; inhibition of Fl-C35 tracer (5 nM) binding to 5HB (20 nM); FP buffer 20 mM PBS pH 7.4, 500 mM NaCl, 0.01% Tween-20, 0.05 mg/ml bovine gamma globulin; 1 h + 30 min at room temperature; ex 485/em 530 nm
Non-standard residues stand in square brackets, D forms with d. No end group written: not given here. Sar = CNCC(=O)O
QUANTITY_KIND: % Inhibition at 200 µM (%)
One number for each entry, in %.

Solved cases (5 shown):
> print(dat)
                                  substance  reported.value
1  ISQVNEKINQSLAFPRKSDE [Peptide P15, proline-substituted C20 peptide]            4.63
2  ISQVNEKIAQSLAFIRKSDE [Peptide A9, alanine-substituted C20 peptide]           30.90
3  ISQVNEKINQSLAFIRK[Sar]DE [Sar18, sarcosine-substituted C20 peptide]           21.30
4  ISQVNEKIPQSLAFIRKSDE [Peptide P9, proline-substituted C20 peptide]           33.33
5  ISQVNEKINQSLAAIRKSDE [Peptide A14, alanine-substituted C20 peptide]           25.00

Fill in % Inhibition at 200 µM for each of the 8 substances listed.
1. ISQVNEKPNQSLAFIRKSDE [Peptide P8, proline-substituted C20 peptide]
2. ISQVNEKINQSLAFIRKS[Sar]E [Sar19, sarcosine-substituted C20 peptide]
3. ISQVNEKANQSLAFIRKSDE [Peptide A8, alanine-substituted C20 peptide]
4. ISQVNEKINQSAAFIRKSDE [Peptide A12, alanine-substituted C20 peptide]
5. ISQVNEKIN[Sar]SLAFIRKSDE [Sar10, sarcosine-substituted C20 peptide]
6. ISQVNEKINQSLAPIRKSDE [Peptide P14, proline-substituted C20 peptide]
7. ISQVNEKINQS[Sar]AFIRKSDE [Sar12, sarcosine-substituted C20 peptide]
8. ISQVN[Sar]KINQSLAFIRKSDE [Sar6, sarcosine-substituted C20 peptide]

1. 11.11
2. 59.26
3. 13.63
4. 43.63
5. 21.30
6. 13.89
7. 7.41
8. 108.33

src = paper PMC3605428
